system: OR5AN1 allele 4; assay: Cell based assay of hypofunctional OR5AN1 allele 4 with and without enhancer; design: species or system human; settings: allele 4, in the presence of 250 μM tridecylenic aldehyde
measurement label: EC50 (nM)
Respond numerically; units are nM and should not be typed.

Task item: # input molecule: CC1CC=CCCCCCCCCCC(=O)C1 (stereo not shown) [MUSCENONE®] ; wanted: its EC50
Reply: 1600

###

target: OR5AN1 olfactory receptor (Homo sapiens); construct: expressed in transfected cells; experiment: Single point binary mixture screen (MUSCENONE® + test compound) on a cell line expressing OR5AN1; type: cell-based; conditions: MUSCENONE® 10 μM + test compound 500 μM, compared to MUSCENONE® alone
Sequence (Q8NGI8 whole entry): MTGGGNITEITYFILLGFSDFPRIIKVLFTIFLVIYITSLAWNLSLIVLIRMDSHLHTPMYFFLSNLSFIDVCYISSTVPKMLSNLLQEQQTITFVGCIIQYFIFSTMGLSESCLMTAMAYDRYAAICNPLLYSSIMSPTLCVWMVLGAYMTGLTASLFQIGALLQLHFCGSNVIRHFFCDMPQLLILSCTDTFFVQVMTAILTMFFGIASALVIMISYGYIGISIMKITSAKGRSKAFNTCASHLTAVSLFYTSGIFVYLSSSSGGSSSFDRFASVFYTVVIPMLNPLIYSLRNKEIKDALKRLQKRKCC
measurement label: Hit Type

Past entries and their recorded results:
CC(=O)c1ccccc1N [Compound 20]    Enhancement
CCCCCC/C=C/C=O [Compound 6]    Enhancement
COC(=O)c1ccccc1OC [Compound 16]    Enhancement
CCCCCCC/C=C/C=O [Compound 11]    Enhancement
CC(C)=CCCC(C)C/C=C/C=O (racemic) [Compound 5, (+−)-(2E)-5,9-dimethyl-2,8-decadienal]    Agonist
CCCCCCCCCCC/C=C/C=O [Compound 7, (E)-2-tetradecenal]    Agonist

API: the following record is the query input.
Task item: # input compound: CCC/C=C/C=O [Compound 12] ; wanted: its Hit Type
Reply: Enhancement
